Where these numbers come from: paper doi:10.1101/228536

Target: T1, Med15 ABD3 (Med15 484-651) (yeast, UniProt P19659 484-651)
T1 sequence (looked up): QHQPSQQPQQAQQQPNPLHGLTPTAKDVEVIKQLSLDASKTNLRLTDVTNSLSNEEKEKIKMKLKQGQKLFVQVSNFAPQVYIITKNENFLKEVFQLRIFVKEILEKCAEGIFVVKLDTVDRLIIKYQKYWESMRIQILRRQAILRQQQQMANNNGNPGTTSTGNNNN
Assay: ITC
quantity-measured: Kd (µM)
Numbers only, in µM.

The reported Kd of the binder Met4 72-160 (domain or fragment, yeast, UniProt P32389 72-160, looked up) VTNRGNTNLYDHAVTPEILLEQLAYVDNFIPSLDNEFSNVDWNVNTTHNNANNNGADTFSSINANPFDLDEQLAIELSAFADDSFIFPD was 1.36

Note: attention shifts to another entry.
The reported Kd of the binder Ino2 1-41-(GS)3-96-160 (domain or fragment, yeast) MQQATGNELLGILDLDNDIDFETAYQMLSSNFDDQMSAHIHGSGSGSPHQPSMGFDQALGLKLSPSSSGLLSTNESNAIEQFLDNLISQDMMSSNASMNSESHLHIRSPKKQ was 7.8
